These data points were gathered from the supplement of paper PMC8728848.

- study_target: Fuc(a1-2)Gal(b1-3)GalNAc
- procedure_summary: glycan array binding signal (z-score within array); higher = stronger binding
- condition_info: glycan notation: IUPAC condensed, linker removed
The sample as a whole holds a higher share of the strongest signals than the screen did.
quantity_measured: glycan array binding signal (z-score)
// response body must contain only the number

Qu. What glycan array binding signal (z-score) value was documented for this binder, Epa7 (Candida glabrata), Q6DTM6_CANGB (protein) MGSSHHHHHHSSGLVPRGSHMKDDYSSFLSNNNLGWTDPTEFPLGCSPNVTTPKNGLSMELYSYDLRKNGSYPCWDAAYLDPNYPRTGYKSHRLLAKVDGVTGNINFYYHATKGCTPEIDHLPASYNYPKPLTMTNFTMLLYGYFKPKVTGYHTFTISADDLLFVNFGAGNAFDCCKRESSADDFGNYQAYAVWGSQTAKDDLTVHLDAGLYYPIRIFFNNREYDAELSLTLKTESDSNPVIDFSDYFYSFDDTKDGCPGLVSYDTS ?
Ans. -0.169
